# credit: ChEMBL document CHEMBL1156432

- EXPERIMENTAL_SYSTEM: Vascular endothelial growth factor receptor 2 (Homo sapiens)
- Sequence (P35968 whole entry): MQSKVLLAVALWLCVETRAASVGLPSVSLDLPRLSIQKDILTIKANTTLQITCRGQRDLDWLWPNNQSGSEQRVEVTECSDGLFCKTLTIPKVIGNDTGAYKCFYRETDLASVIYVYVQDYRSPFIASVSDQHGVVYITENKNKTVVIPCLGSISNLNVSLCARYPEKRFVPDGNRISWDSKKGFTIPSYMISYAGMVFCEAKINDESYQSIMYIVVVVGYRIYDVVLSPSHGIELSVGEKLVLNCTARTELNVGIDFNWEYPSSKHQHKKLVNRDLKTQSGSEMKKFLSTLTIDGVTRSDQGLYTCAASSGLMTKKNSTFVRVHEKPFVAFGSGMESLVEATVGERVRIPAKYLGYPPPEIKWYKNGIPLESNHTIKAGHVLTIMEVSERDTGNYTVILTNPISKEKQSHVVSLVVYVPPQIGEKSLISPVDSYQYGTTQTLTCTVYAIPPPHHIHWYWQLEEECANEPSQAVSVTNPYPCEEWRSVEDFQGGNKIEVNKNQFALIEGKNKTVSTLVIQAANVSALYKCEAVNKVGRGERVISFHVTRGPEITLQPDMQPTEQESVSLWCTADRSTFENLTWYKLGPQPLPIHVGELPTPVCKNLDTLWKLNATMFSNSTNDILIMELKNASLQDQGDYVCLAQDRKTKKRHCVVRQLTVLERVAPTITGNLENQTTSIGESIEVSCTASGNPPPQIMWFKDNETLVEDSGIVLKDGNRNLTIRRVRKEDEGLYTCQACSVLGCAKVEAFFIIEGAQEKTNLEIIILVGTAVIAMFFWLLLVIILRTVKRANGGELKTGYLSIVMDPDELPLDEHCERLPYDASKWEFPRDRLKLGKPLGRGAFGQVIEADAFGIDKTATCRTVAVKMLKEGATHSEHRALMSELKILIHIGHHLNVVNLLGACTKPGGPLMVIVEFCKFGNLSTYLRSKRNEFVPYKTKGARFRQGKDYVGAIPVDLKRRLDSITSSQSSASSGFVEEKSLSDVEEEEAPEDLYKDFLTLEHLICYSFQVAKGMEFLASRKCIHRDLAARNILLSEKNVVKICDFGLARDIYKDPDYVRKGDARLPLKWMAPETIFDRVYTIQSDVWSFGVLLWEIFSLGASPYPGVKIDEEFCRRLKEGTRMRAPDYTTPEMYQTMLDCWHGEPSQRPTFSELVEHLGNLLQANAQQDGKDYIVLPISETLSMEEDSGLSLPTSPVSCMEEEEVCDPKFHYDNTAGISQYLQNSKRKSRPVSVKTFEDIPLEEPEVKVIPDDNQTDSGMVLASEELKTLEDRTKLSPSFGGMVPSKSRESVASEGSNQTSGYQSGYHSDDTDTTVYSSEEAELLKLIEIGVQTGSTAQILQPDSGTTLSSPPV
pIC50: −log10 of the molar value.
MEASURED_PARAMETER: pIC50

- CCN(CC)CCNC(=O)c1c(C)[nH]c(/C=C2\C(=O)Nc3ccc(Cl)cc32)c1C: 5.52

###

- EXPERIMENTAL_SYSTEM: UniProt:P09619
- Sequence (P09619 whole entry): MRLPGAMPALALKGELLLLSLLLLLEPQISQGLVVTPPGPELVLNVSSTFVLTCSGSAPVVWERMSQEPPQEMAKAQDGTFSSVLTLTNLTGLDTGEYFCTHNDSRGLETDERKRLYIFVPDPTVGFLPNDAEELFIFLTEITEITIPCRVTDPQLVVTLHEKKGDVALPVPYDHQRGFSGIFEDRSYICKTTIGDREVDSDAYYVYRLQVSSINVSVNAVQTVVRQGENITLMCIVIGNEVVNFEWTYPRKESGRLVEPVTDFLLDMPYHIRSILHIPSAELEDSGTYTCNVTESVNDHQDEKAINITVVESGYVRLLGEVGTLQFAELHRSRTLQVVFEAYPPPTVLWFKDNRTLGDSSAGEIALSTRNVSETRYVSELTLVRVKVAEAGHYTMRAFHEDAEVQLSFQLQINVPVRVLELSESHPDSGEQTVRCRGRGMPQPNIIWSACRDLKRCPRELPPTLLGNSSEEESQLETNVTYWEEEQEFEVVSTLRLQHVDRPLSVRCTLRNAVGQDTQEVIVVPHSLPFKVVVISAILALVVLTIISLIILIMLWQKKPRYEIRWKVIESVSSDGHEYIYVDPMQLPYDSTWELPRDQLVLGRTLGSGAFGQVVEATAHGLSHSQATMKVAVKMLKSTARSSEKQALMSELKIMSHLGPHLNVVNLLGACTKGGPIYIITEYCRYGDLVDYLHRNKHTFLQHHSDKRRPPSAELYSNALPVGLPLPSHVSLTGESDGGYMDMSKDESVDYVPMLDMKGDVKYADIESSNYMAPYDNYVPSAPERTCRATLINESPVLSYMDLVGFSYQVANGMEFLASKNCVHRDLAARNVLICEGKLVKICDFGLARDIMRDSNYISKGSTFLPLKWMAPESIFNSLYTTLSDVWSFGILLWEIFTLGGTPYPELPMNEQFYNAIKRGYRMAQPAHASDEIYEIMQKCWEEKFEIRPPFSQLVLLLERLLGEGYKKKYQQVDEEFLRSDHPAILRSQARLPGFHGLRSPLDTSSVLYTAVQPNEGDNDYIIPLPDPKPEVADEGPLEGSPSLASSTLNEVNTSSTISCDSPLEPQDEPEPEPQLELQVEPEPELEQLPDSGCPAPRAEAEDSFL
MEASURED_PARAMETER: IC50

• CCN(CC)CCNC(=O)c1c(C)[nH]c(/C=C2\C(=O)Nc3ccc(Cl)cc32)c1C = 3 µM
